System: Shigella flexneri EW-10
The entries below come with measured MIC values attached.
Report only the number, with the unit µg/mL understood.

Please review the following examples before continuing.
COc1c(N2CC[C@@](N)(CF)C2)c(F)cc2c(=O)c(C(=O)O)cn(C3CC3)c12 [Example 6] | 0.012
COc1c(N2CC[C@](N)(CF)C2)c(F)cc2c(=O)c(C(=O)O)cn(C3CC3)c12 [Example 5] | 0.012
COc1c(N2CC[C@@](CN)(CF)C2)c(F)cc2c(=O)c(C(=O)O)cn(C3CC3)c12 [Example 17] | 0.025
CC1COc2c(N3CCN(C)CC3)c(F)cc3c(=O)c(C(=O)O)cn1c23 (stereo not drawn) [Comp. Ex. 2, reference compound] | 0.05

## Task Param readout= MIC; system= Shigella flexneri EW-10; entry= COc1c(N2CCC(N)(CN)CC2)c(F)cc2c(=O)c(C(=O)O)cn(C3CC3)c12 [Comp. Ex. 1, reference compound] ; returns value.
## Result 0.39

###

Test system: S. aureus No.88
Assay details: In vitro antibacterial activity (MIC), Japan Society of Chemotherapy Standard
Type: cell-based
Condition notes: Staphylococcus aureus; quinolone resistant MRSA; inoculated cells 10⁶ cells/ml
Procedure: The in vitro antibacterial activity (minimum inhibitory concentration, MIC, µg/ml) of the test compounds was determined according to Japan Society of Chemotherapy Standard [Chemotherapy, vol. 29, pp 76-79 (1981)]. Inoculated cells were 10⁶ cells/ml and the strain with * was incubated in a medium supplemented with 10% horse blood. The mark "1)" means quinolone resistant MRSA and "2)" means quinolone resistant bacteria.
Reported endpoint: MIC
Reply with the number and its unit after it.

Please review the following examples before continuing.
COc1c(N2CCC(N)(CF)C2)c(F)cc2c(=O)c(C(=O)O)cn(C3CC3)c12 (centres unmarked) | 0.39 µg/mL
COc1c(N2CC[C@@](CN)(CF)C2)c(F)cc2c(=O)c(C(=O)O)cn(C3CC3)c12 | 0.78 µg/mL
COc1c(N2CC[C@](N)(CF)C2)c(F)cc2c(=O)c(C(=O)O)cn(C3CC3)c12 | 0.78 µg/mL
CC1COc2c(N3CCN(C)CC3)c(F)cc3c(=O)c(C(=O)O)cn1c23 (centres unmarked) [Comp. Ex. 2, reference compound] | 50 µg/mL

## Task MIC for `COc1c(N2CC[C@@](N)(CF)C2)c(F)cc2c(=O)c(C(=O)O)cn(C3CC3)c12` ?
## Result 0.39 µg/mL

###

A set of compounds tested on Escherichia coli NIHJ JC-2, with measured MIC:
Report only the number, with the unit µg/mL understood.

CC1COc2c(N3CCN(C)CC3)c(F)cc3c(=O)c(C(=O)O)cn1c23 (stereo not drawn) [Comp. Ex. 2, reference compound] | 0.05
COc1c(N2CC[C@@](CN)(CF)C2)c(F)cc2c(=O)c(C(=O)O)cn(C3CC3)c12 | 0.1
COc1c(N2CCC(N)(CN)CC2)c(F)cc2c(=O)c(C(=O)O)cn(C3CC3)c12 [Comp. Ex. 1, reference compound] | 1.56
COc1c(N2CCC(N)(CF)C2)c(F)cc2c(=O)c(C(=O)O)cn(C3CC3)c12 (stereo not drawn) | 0.025
COc1c(N2CC[C@@](N)(CF)C2)c(F)cc2c(=O)c(C(=O)O)cn(C3CC3)c12 | 0.025

Okay, next one:
## Task Param readout= MIC; system= Escherichia coli NIHJ JC-2; entry= `COc1c(N2CC[C@](N)(CF)C2)c(F)cc2c(=O)c(C(=O)O)cn(C3CC3)c12` ; returns value.
## Result 0.025
